METHOD DESCRIPTION: Phase 1 Part 2: multiple BID doses for 12 days, plasma pharmacokinetics
Assay type: in vivo, human
MEASUREMENT PARAMETERS: both sexes, human, in vivo; 100 mg BID, Day 12, elderly subjects, plasma, arithmetic mean; read-out: Cmin

{"MOLECULE SMILES": "CC(=O)Nc1nnc(N2CCN([C@@H](C)c3ccc4c(c3)OCO4)CC2)s1", "concentration at 12 day [ng/mL]": 84}

---

METHOD DESCRIPTION: Phase 1 Part 2: multiple BID doses for 12 days, plasma pharmacokinetics
Assay type: in vivo, human
MEASUREMENT PARAMETERS: both sexes, human, plasma, oral, 100 mg, 100 mg BID, Day 12, elderly subjects, plasma, arithmetic mean; read-out: t1/2 (converted)

{"MOLECULE SMILES": "CC(=O)Nc1nnc(N2CCN([C@@H](C)c3ccc4c(c3)OCO4)CC2)s1", "half-life (h)": 7.84}

---

METHOD DESCRIPTION: Phase 1 Part 1a: single rising oral doses, fasted, plasma pharmacokinetics
Type: in vivo, human
MEASUREMENT PARAMETERS: human; single oral dose 600 mg, fasted, healthy male subjects, plasma, median (min, max); read-out: Tmax
Excerpt: A Randomized, Double-Blind, Placebo-Controlled, Phase 1 Study to Assess the Safety, Tolerability, Pharmacokinetics and Food Effect of Single and Multiple Doses of Orally Administered Compound of Formula (I) in Healthy Adult and Elderly Subjects The study was a single-centre, randomized, placebo-controlled single- and multiple ascending dose study in healthy male and female (no childbearing potential) volunteers aged 18-80 years. […]
MEASURED PARAMETER: Tmax (h)

{"COMPOUND": "CC(=O)Nc1nnc(N2CCN([C@@H](C)c3ccc4c(c3)OCO4)CC2)s1 [Compound (I)]", "MEASURED PARAMETER": "Tmax", "QUANTITY UNIT": "h", "VALUE OBSERVED": 1.25}

---

METHOD DESCRIPTION: Phase 1 Part 2: cerebrospinal fluid (CSF) pharmacokinetics after multiple BID doses
Format: in vivo, human
MEASUREMENT PARAMETERS: both sexes, human, oral; CSF, 500 mg BID, Day 12, elderly subjects, arithmetic mean

{"MOLECULE SMILES": "CC(=O)Nc1nnc(N2CCN([C@@H](C)c3ccc4c(c3)OCO4)CC2)s1", "Cmax": "282 ng/mL"}

---

METHOD DESCRIPTION: Phase 1 Part 2: multiple BID doses for 12 days, plasma pharmacokinetics
Type: in vivo, human
MEASUREMENT PARAMETERS: both sexes, human, plasma, oral, 250 mg, 250 mg BID, Day 1, elderly subjects, plasma, arithmetic mean; read-out: t1/2 (converted)
MEASURED PARAMETER: half-life (h)

{"MOLECULE SMILES": "CC(=O)Nc1nnc(N2CCN([C@@H](C)c3ccc4c(c3)OCO4)CC2)s1", "MEASURED PARAMETER": "half-life", "VALUE OBSERVED": 4.74}

---

METHOD DESCRIPTION: Phase 1 Part 1b: food effect, single 300 mg dose fasted/fed, plasma pharmacokinetics
Format: in vivo, human
MEASUREMENT PARAMETERS: human, plasma, po, single oral dose 300 mg, fed condition, healthy elderly subjects, arithmetic mean
MEASURED PARAMETER: Cmax (ng/mL)

{"MOLECULE SMILES": "CC(=O)Nc1nnc(N2CCN([C@@H](C)c3ccc4c(c3)OCO4)CC2)s1", "MEASURED PARAMETER": "Cmax", "VALUE OBSERVED": 2410}
